Target: S15V-rP2X3R (Rattus norvegicus, UniProt P49654, S15V)
Sequence (P49654 1-397 S15V): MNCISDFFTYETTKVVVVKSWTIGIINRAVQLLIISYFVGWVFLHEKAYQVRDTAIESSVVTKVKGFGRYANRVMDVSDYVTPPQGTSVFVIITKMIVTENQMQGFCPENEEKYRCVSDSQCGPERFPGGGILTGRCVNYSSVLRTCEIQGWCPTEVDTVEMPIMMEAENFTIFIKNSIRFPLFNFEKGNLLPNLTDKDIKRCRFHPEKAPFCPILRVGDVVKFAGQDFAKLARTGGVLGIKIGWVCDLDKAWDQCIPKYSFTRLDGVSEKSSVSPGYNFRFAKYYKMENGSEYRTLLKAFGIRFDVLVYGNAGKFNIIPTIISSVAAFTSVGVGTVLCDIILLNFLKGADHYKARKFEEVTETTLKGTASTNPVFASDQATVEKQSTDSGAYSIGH
Assay: TEVC of ATP-induced currents, S15V-rP2X3R expressed in X. laevis oocytes (peak current protocol)
Conditions: 1 µM ATP, X. laevis oocytes
quantity measured: IC50 (µM)
One number for each entry, in µM.

Which IC50 is reported with S15V-rP2X3R (Rattus norvegicus, UniProt P49654, S15V) for this entry: O=C(O)c1ccccc1Nc1cccc(C(F)(F)F)c1 ?
264

---

Biological target: hP2X4R (Homo sapiens)
Sequence (Q99571 whole entry): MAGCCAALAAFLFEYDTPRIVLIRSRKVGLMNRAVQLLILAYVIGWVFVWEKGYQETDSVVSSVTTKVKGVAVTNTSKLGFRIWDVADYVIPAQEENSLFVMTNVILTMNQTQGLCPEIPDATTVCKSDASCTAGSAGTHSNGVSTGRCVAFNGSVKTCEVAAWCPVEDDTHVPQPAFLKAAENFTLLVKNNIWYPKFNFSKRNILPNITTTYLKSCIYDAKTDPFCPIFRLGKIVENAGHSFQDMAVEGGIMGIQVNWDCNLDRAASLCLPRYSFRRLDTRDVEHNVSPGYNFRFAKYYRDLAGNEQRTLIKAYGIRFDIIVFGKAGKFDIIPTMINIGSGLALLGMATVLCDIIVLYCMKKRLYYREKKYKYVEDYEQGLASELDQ
Experiment: TEVC of ATP-induced currents, hP2X4R in X. laevis oocytes (steady-state protocol)
Conditions: 10 µM ATP, steady-state protocol, X. laevis oocytes
quantity measured: IC50 (µM)
Give bare numbers, in µM.

Endpoint output: IC50 of O=C(O)Cc1ccccc1Nc1c(Cl)cccc1Cl [Diclofenac, diclofenac] . Value?
1110

---

For each entry below, report its IC50 value.
Molecular target: S15V-hP2X3R (Homo sapiens, UniProt P56373, S15V)
Sequence (P56373 1-397 S15V): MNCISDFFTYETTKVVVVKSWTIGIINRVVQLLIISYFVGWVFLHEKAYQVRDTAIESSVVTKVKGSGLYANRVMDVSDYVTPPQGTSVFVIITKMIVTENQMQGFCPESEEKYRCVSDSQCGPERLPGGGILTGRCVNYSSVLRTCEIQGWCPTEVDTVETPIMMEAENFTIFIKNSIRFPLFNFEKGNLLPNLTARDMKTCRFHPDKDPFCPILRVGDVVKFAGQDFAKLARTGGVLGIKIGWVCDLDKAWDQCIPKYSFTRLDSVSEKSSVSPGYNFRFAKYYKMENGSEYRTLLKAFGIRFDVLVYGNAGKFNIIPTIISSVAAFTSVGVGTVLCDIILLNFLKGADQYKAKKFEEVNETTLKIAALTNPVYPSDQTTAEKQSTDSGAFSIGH
Assay: TEVC of ATP-induced currents, S15V-hP2X3R expressed in X. laevis oocytes (peak current protocol)
Conditions: 1 µM ATP, 30-s preincubation of antagonist, X. laevis oocytes, −60 mV; geometric mean
Answers are plain numbers, in µM.

>>> reported_result("O=C(O)Cc1ccccc1Nc1c(Cl)cccc1Cl")
138

Would you kindly look at the next entry?
Endpoint output: IC50 of Cc1c(Nc2ncccc2C(=O)O)cccc1C(F)(F)F . Value?
32.4

---

Target: hP2X2/3R (Homo sapiens, UniProt P56373+Q9UBL9)
Sequence (Q9UBL9 whole entry): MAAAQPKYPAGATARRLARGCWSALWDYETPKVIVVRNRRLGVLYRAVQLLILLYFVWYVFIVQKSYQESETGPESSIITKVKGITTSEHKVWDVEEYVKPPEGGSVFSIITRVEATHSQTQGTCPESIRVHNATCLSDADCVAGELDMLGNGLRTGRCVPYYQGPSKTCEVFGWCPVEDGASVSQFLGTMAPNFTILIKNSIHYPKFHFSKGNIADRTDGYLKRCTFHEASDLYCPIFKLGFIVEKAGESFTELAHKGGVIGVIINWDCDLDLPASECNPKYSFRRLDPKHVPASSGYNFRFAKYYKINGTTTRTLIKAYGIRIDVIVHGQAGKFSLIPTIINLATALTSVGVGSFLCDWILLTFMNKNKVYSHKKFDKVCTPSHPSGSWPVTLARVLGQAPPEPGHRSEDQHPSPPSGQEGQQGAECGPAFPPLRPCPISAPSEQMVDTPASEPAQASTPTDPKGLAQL
Sequence (P56373 whole entry): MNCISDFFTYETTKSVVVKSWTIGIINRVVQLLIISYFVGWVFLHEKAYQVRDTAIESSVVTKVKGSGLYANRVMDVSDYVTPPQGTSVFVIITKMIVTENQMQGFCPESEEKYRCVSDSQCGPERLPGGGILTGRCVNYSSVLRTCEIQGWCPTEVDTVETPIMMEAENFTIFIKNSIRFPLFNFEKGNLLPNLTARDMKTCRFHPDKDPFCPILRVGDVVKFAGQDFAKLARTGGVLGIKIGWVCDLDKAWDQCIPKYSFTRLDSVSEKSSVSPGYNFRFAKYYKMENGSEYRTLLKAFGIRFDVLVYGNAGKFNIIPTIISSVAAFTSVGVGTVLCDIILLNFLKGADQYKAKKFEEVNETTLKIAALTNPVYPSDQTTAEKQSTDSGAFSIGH
Assay: TEVC of α,β-meATP-induced currents, heteromeric hP2X2/3R in X. laevis oocytes (steady-state protocol)
Conditions: 1 µM α,β-meATP, steady-state protocol, X. laevis oocytes
quantity measured: IC50 (µM)
Numbers only, in µM.

Endpoint output: IC50 of O=C(O)Cc1ccccc1Nc1c(Cl)cccc1Cl [Diclofenac, diclofenac] . Value?
76.7
